B1: Spectrin alpha chain, erythrocytic 1, residues 979 to 1036; numbered along this chain, P02549 (parent)
chain: EQRVMALYDFQARSPREVTMKKGDVLTLLSSINKDWWKVEAADHQGIVPAVYVRRLAH

Variants of: B1
method description: abundance fitness (aPCA) (normalised: wild type 0, dead -1); higher = more abundant; growth selection in yeast, the domain comes from the species named
study conditions: Homo sapiens
Measured abundance fitness accompanies every entry in the list below.
Would you mind answering with just the numeric figure?

Example variants with recorded abundance fitness:
{"sequence variant": "Q45E", "abundance fitness": 0.039}
{"sequence variant": "A50C", "abundance fitness": -0.512}
{"sequence variant": "L7D", "abundance fitness": -0.135}
{"sequence variant": "E17V", "abundance fitness": -0.9}
{"sequence variant": "D43V", "abundance fitness": -0.537}

What the record says about M20R : abundance fitness is -0.963

What the record says about K38C : abundance fitness is 0.284

Data origin: the Human Domainome abundance scans (Beltran et al. 2025)
